pIC50 values by entry
biological target: 5-HT2Cedited (accession number AAF35842.1) (Homo sapiens, UniProt P28335, I156V/I160V/N158S); test: biochemical
Sequence (P28335 whole entry I156V/N158S/I160V, looked up): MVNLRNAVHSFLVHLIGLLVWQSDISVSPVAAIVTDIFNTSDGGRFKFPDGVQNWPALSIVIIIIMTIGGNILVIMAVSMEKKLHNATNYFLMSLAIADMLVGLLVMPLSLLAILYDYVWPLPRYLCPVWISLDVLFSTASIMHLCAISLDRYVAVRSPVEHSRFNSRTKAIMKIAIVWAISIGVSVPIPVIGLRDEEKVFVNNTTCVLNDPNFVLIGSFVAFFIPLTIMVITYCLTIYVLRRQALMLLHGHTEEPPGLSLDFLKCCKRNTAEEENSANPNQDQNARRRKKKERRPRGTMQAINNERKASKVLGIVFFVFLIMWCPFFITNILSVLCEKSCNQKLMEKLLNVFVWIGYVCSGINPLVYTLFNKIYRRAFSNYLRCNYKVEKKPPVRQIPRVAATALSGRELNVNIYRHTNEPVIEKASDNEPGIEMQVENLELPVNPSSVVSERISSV
pIC50: −log10 of the molar value.

Take a look at these entries with their results.
| compound | pIC50 |
| --- | --- |
| COc1cccc2[nH]c3c(c12)CC1CCCN1CC3 (centres unmarked) | 6.00 to 7.00 |
| COc1ccc2c3c([nH]c2c1)CCN1CCC[C@H]1C3 | 5.00 to 6.00 |
| c1ccc2c3c([nH]c2c1)C[C@H]1CCCN1CC3 | 6.00 to 7.00 |
| c1ccc2c3c([nH]c2c1)CC1CCCN1CC3 (centres unmarked) | 6.00 to 7.00 |
| COc1cccc2[nH]c3c(c12)C[C@H]1CCCN1CC3 | 7.00 to 8.00 |

What the record says about FC(F)(F)c1cccc2[nH]c3c(c12)CCN1CCCC1C3 (centres unmarked) : pIC50 is 6.00 to 7.00

What the record says about `c1ccc2c3c([nH]c2c1)CCN1CCC[C@@H]1C3` : pIC50 is 6.00 to 7.00

What the record says about `COc1ccc2c3c([nH]c2c1)C[C@@H]1CCCN1CC3` : pIC50 is 5.00 to 6.00

What the record says about FC(F)(F)c1cccc2[nH]c3c(c12)CC1CCCN1CC3 (centres unmarked) : pIC50 is 7.00 to 8.00

What the record says about FC(F)(F)c1ccc2c3c([nH]c2c1)CC1CCCN1CC3 (centres unmarked) : pIC50 is 5.00 to 6.00

What the record says about `COc1ccc2c3c([nH]c2c1)CCN1CCC[C@@H]1C3` : pIC50 is 5.00 to 6.00

###

target: human recombinant 5-HT2Cedited receptor (Homo sapiens, UniProt P28335, I156V/I160V/N158S); assay: cell-based
Sequence (P28335 33-458 I156V/N158S/I160V limits assumed): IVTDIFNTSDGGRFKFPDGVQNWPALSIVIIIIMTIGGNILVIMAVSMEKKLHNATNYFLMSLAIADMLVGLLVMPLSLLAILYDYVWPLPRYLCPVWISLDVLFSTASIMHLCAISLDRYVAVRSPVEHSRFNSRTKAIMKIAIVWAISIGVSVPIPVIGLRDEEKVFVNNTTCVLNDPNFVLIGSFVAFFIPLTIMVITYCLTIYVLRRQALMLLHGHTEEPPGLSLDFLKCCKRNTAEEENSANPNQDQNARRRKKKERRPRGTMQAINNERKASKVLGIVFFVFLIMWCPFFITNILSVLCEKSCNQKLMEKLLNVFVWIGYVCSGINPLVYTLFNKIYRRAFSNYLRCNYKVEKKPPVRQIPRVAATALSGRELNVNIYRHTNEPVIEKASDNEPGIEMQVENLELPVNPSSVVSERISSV
metric: EC50

Take a look at these entries with their results.
| molecule | test target | EC50 |
| --- | --- | --- |
| c1ccc2c3c([nH]c2c1)CCN1CCCC1C3 (stereo not shown) | human recombinant 5-HT2Cedited receptor (Homo sapiens, UniProt P28335, I156V/I160V/N158S) | 0.101 to 1 µM |
| FC(F)(F)c1cccc2[nH]c3c(c12)CC1CCCN1CC3 (stereo not shown) | human recombinant 5-HT2Cedited receptor (Homo sapiens, UniProt P28335, I156V/I160V/N158S) | 0.101 to 1 µM |
| FC(F)(F)c1ccc2c3c([nH]c2c1)CC1CCCN1CC3 (stereo not shown) | human recombinant 5-HT2Cedited receptor (Homo sapiens, UniProt P28335, I156V/I160V/N158S) | > 10 µM |
| COc1cccc2[nH]c3c(c12)C[C@H]1CCCN1CC3 | human recombinant 5-HT2Cedited receptor (Homo sapiens, UniProt P28335, I156V/I160V/N158S) | 0.01 to 0.1 µM |
| FC(F)(F)Oc1ccc2c3c([nH]c2c1)CC1CCCN1CC3 (stereo not shown) | human recombinant 5-HT2Cedited receptor (Homo sapiens, UniProt P28335, I156V/I160V/N158S) | > 10 µM |
| COc1ccc2c3c([nH]c2c1)CCN1CCC[C@H]1C3 | human recombinant 5-HT2Cedited receptor (Homo sapiens, UniProt P28335, I156V/I160V/N158S) | 1 to 10 µM |
| c1ccc2c3c([nH]c2c1)CCN1CCC[C@@H]1C3 | human recombinant 5-HT2Cedited receptor (Homo sapiens, UniProt P28335, I156V/I160V/N158S) | 0.101 to 1 µM |
| Cn1c2c(c3ccccc31)CC1CCCN1CC2 (stereo not shown) | human recombinant 5-HT2Cedited receptor (Homo sapiens, UniProt P28335, I156V/I160V/N158S) | 0.101 to 1 µM |
| FC(F)(F)c1cccc2[nH]c3c(c12)CCN1CCCC1C3 (stereo not shown) | human recombinant 5-HT2Cedited receptor (Homo sapiens, UniProt P28335, I156V/I160V/N158S) | 0.101 to 1 µM |

Now consider the entry below.
What the record says about COc1ccc2c3c([nH]c2c1)CC1CCCN1CC3 (stereo not shown) : EC50 is 1 to 10 µM

###

pEC50 values by entry
molecular target: human recombinant 5-HT2Cedited receptor (Homo sapiens, UniProt P28335, I156V/I160V/N158S); assay: cell-based
pEC50: −log10 of the molar value.

Take a look at these entries with their results.
| molecule | pEC50 |
| --- | --- |
| COc1cccc2[nH]c3c(c12)C[C@@H]1CCCN1CC3 [Compound 27] | 6.00 to 7.00 |
| COc1ccc2c3c([nH]c2c1)CCN1CCC[C@@H]1C3 [Compound 24] | 5.00 to 6.00 |
| Cn1c2c(c3ccccc31)CCN1CCCC1C2 (stereo not drawn) [Compound 3] | 6.00 to 7.00 |
| c1ccc2c3c([nH]c2c1)CC1CCCN1CC3 (stereo not drawn) [Compound 4] | 6.00 to 7.00 |

What the record says about c1ccc2c3c([nH]c2c1)C[C@@H]1CCCN1CC3 [Compound 19] : pEC50 is 6.00 to 7.00

What the record says about COc1ccc2c3c([nH]c2c1)C[C@@H]1CCCN1CC3 [Compound 17] : pEC50 is < 5.00

###

molecular target: 5-HT2Cedited (accession number AAF35842.1) (Homo sapiens, UniProt P28335, I156V/I160V/N158S); experiment: biochemical; format: binding
pIC50: −log10 of the molar value.
metric: pIC50

Take a look at these entries with their results.
| compound | pIC50 |
| --- | --- |
| c1ccc2c3c([nH]c2c1)CCN1CCC[C@H]1C3 | 6.00 to 7.00 |
| Cn1c2c(c3ccccc31)CCN1CCCC1C2 (stereo not shown) | 6.00 to 7.00 |
| COc1ccc2c3c([nH]c2c1)C[C@H]1CCCN1CC3 | 5.00 to 6.00 |
| Cn1c2c(c3ccccc31)CC1CCCN1CC2 (stereo not shown) | 6.00 to 7.00 |
| c1ccc2c3c([nH]c2c1)C[C@@H]1CCCN1CC3 | 6.00 to 7.00 |

What the record says about `COc1cccc2[nH]c3c(c12)C[C@@H]1CCCN1CC3` : pIC50 is 6.00 to 7.00

What the record says about FC(F)(F)Oc1ccc2c3c([nH]c2c1)CC1CCCN1CC3 (stereo not shown) : pIC50 is 5.00 to 6.00

###

pEC50 values by entry
biological target: human recombinant 5-HT2Cedited receptor (Homo sapiens, UniProt P28335, I156V/I160V/N158S); assay: cell-based
pEC50: −log10 of the molar value.

Take a look at these entries with their results.
| compound | test target | reported value |
| --- | --- | --- |
| c1ccc2c3c([nH]c2c1)CCN1CCC[C@H]1C3 [Compound 23] | human recombinant 5-HT2Cedited receptor (Homo sapiens, UniProt P28335, I156V/I160V/N158S) | 6.00 to 7.00 |
| COc1ccc2c3c([nH]c2c1)C[C@H]1CCCN1CC3 [Compound 18] | human recombinant 5-HT2Cedited receptor (Homo sapiens, UniProt P28335, I156V/I160V/N158S) | < 5.00 |

COc1cccc2[nH]c3c(c12)CC1CCCN1CC3 (centres unmarked) [Compound 5] on human recombinant 5-HT2Cedited receptor (Homo sapiens, UniProt P28335, I156V/I160V/N158S) gives pEC50 = 5.00 to 6.00

COc1ccc2c3c([nH]c2c1)CCN1CCCC1C3 (centres unmarked) [Compound 1] on human recombinant 5-HT2Cedited receptor (Homo sapiens, UniProt P28335, I156V/I160V/N158S) gives pEC50 = < 5.00

c1ccc2c3c([nH]c2c1)C[C@H]1CCCN1CC3 [Compound 20] on human recombinant 5-HT2Cedited receptor (Homo sapiens, UniProt P28335, I156V/I160V/N158S) gives pEC50 = 7.00 to 8.00

###

biological target: 5-HT2Cedited (accession number AAF35842.1) (Homo sapiens, UniProt P28335, I156V/I160V/N158S); experiment: biochemical
pIC50: −log10 of the molar value.
metric: pIC50

| compound | pIC50 |
| --- | --- |
| COc1ccc2c3c([nH]c2c1)CCN1CCCC1C3 (stereo not drawn) | 5.00 to 6.00 |
| c1ccc2c3c([nH]c2c1)CCN1CCCC1C3 (stereo not drawn) | 6.00 to 7.00 |

Now consider the entry below.
What the record says about COc1ccc2c3c([nH]c2c1)CC1CCCN1CC3 (stereo not drawn) : pIC50 is 5.00 to 6.00
